Species on record: Rattus norvegicus
run.description: Open TG-GATES - Regimen: Daily Repeat
Type: toxicity, organism-based, Sprague-Dawley
Set-up: regimen Daily Repeat, gender Male, age 6 weeks
measurement.setup: in vivo, po, 1000 mg/kg, […], tissue Plasma, route gavage, dose level High, time 7 day
// K lookup, one value per entry
Your answer should be a plain number; it is taken to be in meq/L.

Input: Identify the reported K for the following entry. CCCCNC(=O)NS(=O)(=O)c1ccc(C)cc1 [TOLBUTAMIDE]
Output: 4

====

Species on record: Rattus norvegicus
run.description: Open TG-GATES - Regimen: Daily Repeat
Format: toxicity, organism-based, Sprague-Dawley
Set-up: regimen Daily Repeat, gender Male, age 6 weeks
measurement.setup: in vivo, po, 0 mg/kg, […], tissue Plasma, route gavage, dose level Control, time 28 day
readout.type: DBIL (mg/dL)
Your answer should be a plain number; it is taken to be in mg/dL.

Observe how each entry below is paired with its result.
O=c1ccc2ccccc2o1 : 0.012
COc1ccc([C@@H]2Sc3ccccc3N(CCN(C)C)C(=O)[C@@H]2OC(C)=O)cc1 : 0.014
CCCCNC(=O)NS(=O)(=O)c1ccc(C)cc1 [TOLBUTAMIDE] : 0.014
CC(=O)[C@@]1(O)CC[C@H]2[C@@H]3C=C(Cl)C4=CC(=O)CC[C@]4(C)[C@H]3CC[C@@]21C : 0
O=C(O)c1ccccc1Nc1ccccc1 : 0.006

Input: Identify the reported DBIL for the following entry. NS(=O)(=O)c1cc(C(=O)O)c(NCc2ccco2)cc1Cl [FUROSEMIDE]
Output: 0.016

Input: Identify the reported DBIL for the following entry. "CCCCC1C(=O)N(c2ccccc2)N(c2ccccc2)C1=O"
Output: 0.008

Input: Identify the reported DBIL for the following entry. "CCN(CC)C(=S)SSC(=S)N(CC)CC"
Output: 0

Input: Identify the reported DBIL for the following entry. CC(S)C(=O)NCC(=O)O (stereo not drawn)
Output: 0

Input: Identify the reported DBIL for the following entry. "CN(C/C=C/C#CC(C)(C)C)Cc1cccc2ccccc12"
Output: 0.092

Input: Identify the reported DBIL for the following entry. CN(CCOc1ccc(CC2SC(=O)NC2=O)cc1)c1ccccn1.O=C(O)/C=C\C(=O)O (stereo not drawn) [ROSIGLITAZONE MALEATE]
Output: 0.012

Input: Identify the reported DBIL for the following entry. "Nc1ccc(Cc2ccc(N)cc2)cc1"
Output: 0.02

Input: Identify the reported DBIL for the following entry. "CCO"
Output: 0
